# System: C-4-I (Cervical Carcinoma)
# TEST_PROTOCOL: combination Emax (second highest fraction inhibited in the dose matrix, 72 h); higher = more inhibition; extreme values may be limits of the assay

MOLECULE	combination Emax
CC1(C)CCC(CN2CCN(c3ccc(C(=O)NS(=O)(=O)c4ccc(NCC5CCOCC5)c([N+](=O)[O-])c4)c(Oc4cnc5[nH]ccc5c4)c3)CC2)=C(c2ccc(Cl)cc2)C1 [Venetoclax] + Cn1cnc2c(F)c(Nc3ccc(Br)cc3Cl)c(C(=O)NOCCO)cc21 [Selumetinib] (first compound max 1 µM, 7x7, partner max 3 µM)	0.385
CN(C)CCCOc1ccc(-c2ccc3ncc4c(c3c2)n(C2CCOCC2)c(=O)n4C)cn1 [AZD0156] + O=C(c1cc(Cc2n[nH]c(=O)c3ccccc23)ccc1F)N1CCN(C(=O)C2CC2)CC1 [Olaparib] (first compound max 3 µM, partner max 3 µM)	0.362
Cc1c2c(nn1C)CSCc1cc(n(C)n1)CSc1cc(c3ccccc3c1)OCCCc1c(C(=O)O)n(C)c3c-2c(Cl)ccc13 [AZD5991] + C[C@@H](Nc1cc(F)cc(F)c1)c1cc(C(=O)N(C)C)cc2c(=O)cc(N3CCOCC3)oc12 [AZD8186] (first compound max 1 µM, 7x7, partner max 3 µM)	0.985
